Assay: Pharmacokinetic studies in mice (IV and PO)
Format: in vivo
Details: mouse, plasma, IV 2 mg/kg
READOUT_KIND: AUC(0-t) (ng·h/mL)
Supply the numeric figure in ng·h/mL, leaving out any unit text.

According to the records, this molecule CO[C@H]1/C=C/C[C@H](C)[C@@H](C)S(=O)(=O)NC(=O)c2ccc3c(c2)N(C[C@@H]2CC[C@H]21)C[C@@]1(CCCc2cc(Cl)ccc21)CO3 [AMG-176, reference compound] displays AUC(0-t) of 6800

According to the records, this molecule CO[C@H]1C2=CC(C2)[C@H](C)CS(=O)(=O)NC(=O)c2ccc3c(c2)N(C[C@@H]2CC[C@H]21)C[C@@]1(CCCc2cc(Cl)ccc21)CO3 (single isomer, unassigned) [Cpd. No. 14 (Isomer 1)] displays AUC(0-t) of 4690

According to the records, this molecule CO[C@H]1C2=CC(C2)[C@H](C)[C@@H](C)S(=O)(=O)NC(=O)c2ccc3c(c2)N(C[C@@H]2CC[C@H]21)C[C@@]1(CCCc2cc(Cl)c(F)cc21)CO3 (single isomer, unassigned) [Cpd. No. 21 (isomer 1)] displays AUC(0-t) of 8740

According to the records, this molecule CO[C@H]1C2=C[C@@H](C2)[C@H](C)[C@@H](C)S(=O)(=O)NC(=O)c2ccc3c(c2)N(C[C@@H]2CC[C@H]21)C[C@@]1(CCCc2cc(Cl)ccc21)CO3 (single isomer, unassigned) [Cpd. No. 15 (isomer 1)] displays AUC(0-t) of 7580

* * *

In what follows, each item is paired with its pIC50 for Mcl-1 protein (residues 171-323) (Homo sapiens).
// pIC50: -log10(molar conc.)

According to the records, this compound CO[C@@H]1C2=CC(C2)CC(C)S(=O)(=O)NC(=O)c2ccc3c(c2)N(C[C@@H]2CC[C@H]21)C[C@@]1(CCCc2cc(Cl)ccc21)CO3 (single isomer, unassigned) [7 (Isomer 1)] displays pIC50 of 8.38

According to the records, this compound CO[C@@H]1C2=CC(C2)[C@H](C)N(C)S(=O)(=O)NC(=O)c2ccc3c(c2)N(C[C@@H]2CC[C@H]21)C[C@@]1(CCCc2cc(Cl)ccc21)CO3 (single isomer, unassigned) [27 (isomer 2)] displays pIC50 of 8.47

According to the records, this compound CO[C@@]1(CN2CCC(N3CCOCC3)CC2)C2=C[C@@H](C2)[C@H](C)[C@@H](C)S(=O)(=O)NC(=O)c2ccc3c(n2)N(C[C@@H]2CC[C@H]21)C[C@@]1(CCCc2c1ccc(Cl)c2F)CO3 displays pIC50 of 7.72

According to the records, this compound CO[C@@H]1C2=CC(CCS(=O)(=O)NC(=O)c3ccc4c(c3)N(C[C@@H]3CC[C@H]31)C[C@@]1(CCCc3cc(Cl)ccc31)CO4)C2 (single isomer, unassigned) [Cpd. No. 4 (Isomer 2)] displays pIC50 of 7.92

According to the records, this compound CO[C@@]1(CN2CCN(C)CC2)C2=C[C@@H](C2)[C@H](C)[C@@H](C)S(=O)(=O)NC(=O)c2ccc3c(c2)N(C[C@@H]2CC[C@H]21)C[C@@]1(CCCc2c1ccc(Cl)c2F)CO3 displays pIC50 of 7.85

According to the records, this compound CO[C@@H]1C2=CC(C2)C(C)(C)CS(=O)(=O)NC(=O)c2ccc3c(c2)N(C[C@@H]2CC[C@H]21)C[C@@]1(CCCc2cc(Cl)ccc21)CO3 (single isomer, unassigned) [Cpd. No. 6 (Isomer 1)] displays pIC50 of 8.28

According to the records, this compound CO[C@H]1C2=C[C@H](C2)[C@H](C)N(C[C@@H]2CCCO2)S(=O)(=O)NC(=O)c2ccc3c(c2)N(C[C@@H]2CC[C@H]21)C[C@@]1(CCCc2cc(Cl)ccc21)CO3 (single isomer, unassigned) [30 (isomer 1)] displays pIC50 of 8.21

According to the records, this compound CO[C@H]1C2=CC(C2)CC(C)S(=O)(=O)NC(=O)c2ccc3c(c2)N(C[C@@H]2CC[C@H]21)C[C@@]1(CCCc2cc(Cl)ccc21)CO3 (single isomer, unassigned) [11 (Isomer 1)] displays pIC50 of 8.19

According to the records, this compound CCOC(=O)CO[C@H]1C2=C[C@@H](C2)[C@H](C)[C@@H](C)S(=O)(=O)NC(=O)c2ccc3c(c2)N(C[C@@H]2CC[C@H]21)C[C@@]1(CCCc2c1ccc(Cl)c2F)CO3 displays pIC50 of 7.85
